target_desc: GORASP1, Q9BQQ3
Sequence (Q9BQQ3 1-208): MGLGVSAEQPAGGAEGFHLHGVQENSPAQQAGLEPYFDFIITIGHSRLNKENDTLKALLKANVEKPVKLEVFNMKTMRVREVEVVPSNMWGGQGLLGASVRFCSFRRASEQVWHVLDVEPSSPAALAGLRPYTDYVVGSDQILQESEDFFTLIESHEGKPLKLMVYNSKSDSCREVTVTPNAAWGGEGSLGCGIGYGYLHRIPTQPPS
procedure_details: holdup assay
Parameters: key: below the threshold = too weak to quantify, mostly under pKd 3.1 to 4
experimental_setup: plain residues with an end cap or a label only (N-terminal biotin on a linker: ado-ado)
measure_name: pKd

Use the examples below as a reference point.
{"columns": ["binder", "pKd"],
 "data": [
  ["FVHPILQSAV [PRKCA, P17252]", "below the threshold"],
  ["EDLTKNHDEL [RCN1, Q15293]", "below the threshold"],
  ["TETASVCTKV [SLC23A1, Q9UHI7]", 3.87],
  ["QKNKDKEYYV [NRXN3_rs746444206, Q9Y4C0]", 4.12]
]}

Give a short answer stating reported pKd for EEPEERHTEL [CES2, O00748] . below the threshold

Complete the entry with pKd for GFGEERESIL [KIDINS220, Q9ULH0] below the threshold

# credit: paper PMC9482650
